- Test system: c-Myc (DNA, G4) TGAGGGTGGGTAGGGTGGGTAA
- Test method notes: fluorescence lifetime displacement assay (TCSPC)
- Measurement context: 100 mM KCl (K+), 10 mM lithium cacodylate (Li+); pH 7.3; 2 µM DAOTA-M2 displaced; 4 µM c-Myc
Result type: binding

[Cu+2].[O-]c1cc(OCCN2CCCCC2)ccc1/C=N/c1ccccc1/N=C/c1ccc(OCCN2CCCCC2)cc1[O-] | yes
[O-]c1cc(OCCN2CCCCC2)ccc1/C=N/c1ccccc1/N=C/c1ccc(OCCN2CCCCC2)cc1[O-].[Zn+2] | weak
[O-2].[O-]c1cc(OCCN2CCCCC2)ccc1/C=N/c1ccccc1/N=C/c1ccc(OCCN2CCCCC2)cc1[O-].[V+4] | yes
[Ni+2].[O-]c1cc(OCCN2CCCCC2)ccc1/C=N/c1ccccc1/N=C/c1ccc(OCCN2CCCCC2)cc1[O-] | yes
